# method: Solubility characteristics
# Assay type: physicochemical
# conditionDescription: water; in words
Counter-ions that a name gives are not always drawn.
quantityMeasured: Solubility in water

Sample answers from the record:
Query :: Answer with the recorded Solubility in water for the compound listed here: O=C(NCCN1CCCC1)c1cc2ccccc2oc1=O [Example 14, hydrochloride]
Result :: very soluble

Query :: Give Solubility in water for COc1cc(C(=O)NCCN2CCCC2)cc(OC)c1OC [F 1538, hydrochloride]
Result :: soluble

Query :: State its Solubility in water for this compound: O=C(NCCN1CCCC1)C(c1ccccc1)c1ccccc1 [F 1630]
Result :: Insoluble

Query :: Using the record for CC(C)(Oc1ccccc1)C(=O)NCCN1CCCC1 [F 1540, hydrochloride] , state its measured Solubility in water.
Result :: soluble

Query :: Check the records and state Solubility in water for O=C(NCCN1CCCC1)C(O)(c1ccccc1)c1ccccc1 [F 1535, hydrochloride]
Result :: very soluble

Continuing:
Query :: Look up and state reported Solubility in water for O=C(NCCN1CCCC1)C1c2ccccc2Oc2ccccc21 [F 1534, hydrochloride]
Result :: very soluble

Query :: Check the records and state Solubility in water for Cc1cc(Br)cc(C(=O)NCCN2CCCC2)c1O [Example 9, hydrochloride]
Result :: very soluble

Query :: Assign Solubility in water to the following record: O=C(NCCN1CCCC1)C1c2ccccc2-c2ccccc21 [F 1532, hydrochloride]
Result :: very soluble
